Target: T1, His-tagged human TIGIT (human, UniProt Q495A1 22-141)
T1 construct: soluble analyte in SPR
T1 sequence: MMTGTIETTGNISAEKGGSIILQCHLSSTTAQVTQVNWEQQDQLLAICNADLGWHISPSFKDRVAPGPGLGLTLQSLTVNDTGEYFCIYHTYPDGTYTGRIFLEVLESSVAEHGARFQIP
Assay: SPR Biacore, antibody captured on anti-human Fc, His-tagged TIGIT injected
Endpoint: kon
Report field: quantity (unit follows the number).

Answered examples (3):
Binder	kon
3966C11 (antibody, human IgG1, V domains shown, constant regions correspond to those of H03-12 (human IgG1, kappa)) VH: EIQLVQSGSELKKPGASVKVSCKASGYTFTSYPMNWVRQAPGQGLEWMGWINTNTGNPTNAQGFTGRFVFSLDTSVSTAYLQISSLKAEDTAVYYCARVGGYGGYDYAFDIWGQGTMVTVSS VL: DIQLTQSPSFLSASVGDRVTITCRASQGISSYLAWYQQKPGKAPKLLIYAASTLQSGVPSRFSGSGSGTEFTLTISSLQPEDFATYYCQQLNSYPTFGGGTKLEIK	108000 M⁻¹ s⁻¹
3964A06 (antibody, human IgG1, V domains shown) VH: EVQLVQSGSELKKPGASVKVSCKASGYTFTAYPMNWVRQAPGQGLEWMGWINTNTGNPTYAQGFTGRFVFSLDTSVSTAYLQISSLKAEDTAVYYCARVGGYSVYDYAFDIWGQGTMVTVSS VL: DIQLTQSPSFLSASVGDRVTITCRASQGISSYLAWYQQKPGKAPKLLIYAASTLQSGVPSRFSGSGSGTEFTLTISSLQPEDFATYYCQQLNSYPTFGGGTKVEIK	89100 M⁻¹ s⁻¹
3965D08 (antibody, human IgG1, V domains shown, constant regions correspond to those of H03-12 (human IgG1, kappa)) VH: EVQLVQSGSELKKPGASVKVSCKASGYTFTSYPMNWVRQAPGQGLEWMGWINTNTGNPTYAQGFTGRFVFSLDTSVSTAYLQISSLKAEDTAVYYCARTGYSGSYYWFDPWGQGTLVTVSS VL: DIRLTQSPSFLSASVGDRVTITCRASQGISSYLAWYQQKPGKAPKFLIYAASTLQSGVPSRFSGSGSGTEFTLTISSLQPEDFATYYCQQLNSYLTFGQGTRLEIK	482000 M⁻¹ s⁻¹

Let us move to another entry and its kon.
# binder 7729G05 (antibody, V domains shown, constant regions correspond to those of H03-12) VH: QVQLVQSGSELKKPGASVKVSCKASGYTFTSYPMNWVRQAPGQGLEWMGWINTNTGNPTYAQGFTGRFVFSLDTSVSTAYLQISSLKAEDTAVYYCARVGGFTVPEYAFDIWGQGTTVTVSS VL: DIRLTQSPSFLSASVGDRVTITCRASQGISSYLAWYQQKPGKAPKLLIYAASTLQSGVPSRFSGSGSGTEFTLTISSLQPEDFATYYCGQVMRYPAFGGGTKVEIK ; its kon = 767000 M⁻¹ s⁻¹
